biological target: T1, human wt-ERβ LBD (estrogen receptor beta ligand-binding domain, amino acids 261-502) (human, UniProt Q92731 261-502); assay: fluorescence polarisation; fluorescence anisotropy; 4 nM fluorescein-SRC-1 NR2 peptide, LBD diluted 2-fold from 10 uM (ERα) or 20 uM (ERβ); with BP-2 at 20 uM (ERα) or 40 uM (ERβ); 20 mM Tris pH 8.0, 150 mM NaCl, 5 mM DTT, 10% glycerol; conditions: both partners purified
T1 construct: Cloned into pET-32a; N-terminal thioredoxine-hexahistidine tag removed with TEV protease; not shown: thioredoxin, N-terminal, cleaved; His6, N-terminal, cleaved
T1 sequence (Q92731 261-502): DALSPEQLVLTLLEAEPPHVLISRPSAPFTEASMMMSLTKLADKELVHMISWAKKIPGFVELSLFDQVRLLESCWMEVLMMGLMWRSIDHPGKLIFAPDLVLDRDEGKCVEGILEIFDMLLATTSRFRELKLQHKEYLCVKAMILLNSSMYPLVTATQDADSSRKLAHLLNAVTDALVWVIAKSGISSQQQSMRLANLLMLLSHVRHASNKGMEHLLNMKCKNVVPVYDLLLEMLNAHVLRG
Where no end group is shown, it is not given here. fluorescein = fluorescein label on the N-terminus of the peptide
value.kind: Kd
Please report the result as a number followed by the unit.

Any idea what Kd was measured for fluorescein-RHKILHRLLQEGS (also called SRC-1 NR2 peptide; fluorescein-labeled SRC-1 NR2 peptide; source: bought: EZbiolab) [fluorescein-RHKILHRLLQEGS peptide corresponding to the NR box 2-binding motif of SRC-1] ? 990 nM
